B1: 5KPH (parent)
chain: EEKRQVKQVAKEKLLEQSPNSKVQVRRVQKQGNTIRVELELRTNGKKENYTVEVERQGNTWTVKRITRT

Variants of: B1
assayInfo: folding stability dG (cDNA display proteolysis); higher = more stable
reportedConditions: PBS, room temperature
The following variants are shown together with reported folding stability dG values.
Numbers only; they are read as kcal/mol.

Observe how each entry below is paired with its result.
biopolymerSequence	folding stability dG, kcal/mol
ELKRQVKQVAKEKLLEQSPNSKVQVRRVQKQGNTIRVELELRTNGKKENYTVEVERQGNTWTVKRITRT [E2L]	3.66
EEKRQVKQVAKEKLLEQSPNSKVQVRRVQGQGNTIRVELELRTNGKKENYTVEVERQGNTWTVKRITRT [K30G]	4.08
EWKRQVKQVAKEKLLEQSPNSKVQVRRVQKQGNTIRVELELRTNGKKENYTVEVERQGNTWTVKRITRT [E2W]	4.05
EEKRQVKQVAKEKLLEQSPNSKVQVRRVQKQGNTIRVELELRTNGKKENYTVEVERQGNTWTVDRITRT [K64D]	2.18
EEKRQVKQVAKEKLLEQSPNSKVQVRRVQKQGNTIRVELELRWNGKKENYTVEVERQGNTWTVKRITRT [T43W]	3.7
EEKRQVKDVAKEKLLEQSPNSKVQVRRVQKQGNTIRVELELRTNGKKENYTVEVERQGNTWTVKRITRT [Q8D]	3.67
EEKRQVKQVAKEKLSEQSPNSKVQVRRVQKQGNTIRVELELRTNGKKENYTVEVERQGNTWTVKRITRT [L15S]	2.83
EEKRQVKQVAKEKLLEQSPNSKVQWRRVQKQGNTIRVELELRTNGKKENYTVEVERQGNTWTVKRITRT [V25W]	2.7
EEKRQVKQVAKEKLLEQSPNSKVQVRRVQKLGNTIRVELELRTNGKKENYTVEVERQGNTWTVKRITRT [Q31L]	4.27
EEKRQVKQVAKEKLLEQSPWSKVQVRRVQKQGNTIRVELELRTNGKKENYTVEVERQGNTWTVKRITRT [N20W]	2.38

Problem: I'd like to know its folding stability dG. The variant in question is EEKRQVKQVAKEKNLEQSPNSKVQVRRVQKQGNTIRVELELRTNGKKENYTVEVERQGNTWTVKRITRT [L14N]
Result: 1.92

Problem: Try this variant too: ECKRQVKQVAKEKLLEQSPNSKVQVRRVQKQGNTIRVELELRTNGKKENYTVEVERQGNTWTVKRITRT [E2C]
Result: 3.69

Problem: Try this variant too: EEKRQVKQVAKEKLLEQSPNSKVQVRRVQKQGNTIRVEGELRTNGKKENYTVEVERQGNTWTVKRITRT [L39G]
Result: 2.35

Problem: Try this variant too: EEKRQVKQVAKEKLLEQSPNSKVQVRRVQFQGNTIRVELELRTNGKKENYTVEVERQGNTWTVKRITRT [K30F]
Result: 4.62

Problem: Try this variant too: EEKRQVKQVAKEKLKEQSPNSKVQVRRVQKQGNTIRVELELRTNGKKENYTVEVERQGNTWTVKRITRT [L15K]
Result: 3.36

Problem: Try this variant too: EEKRQVKQVAKEKLLEQSPNSKVQMRRVQKQGNTIRVELELRTNGKKENYTVEVERQGNTWTVKRITRT [V25M]
Result: 2.63

Problem: Try this variant too: EEKRQVKQVAKEKLLEQSPNSKVQVRRVQKQGNTIRVELELRTNGKKENYTVVVERQGNTWTVKRITRT [E53V]
Result: 3.94

Problem: Try this variant too: EEKRQVKQVAKEKLLEQSPNSKVQVRRVQKVGNTIRVELELRTNGKKENYTVEVERQGNTWTVKRITRT [Q31V]
Result: 4.25
